Kindly state activation for each of the entries shown.
- System: DAF-12 nuclear receptor (Haemonchus contortus)
- protocol description: hcDAF-12 driven luciferase reporter activation – cell-based, luminescence, HEK293, lit1-tk-luc reporter, primary screen (AID 652067);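 note: 100% = response to 3 µM Δ7-dafachronic acid high control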
- condition: HEK293 hcDAF-12 lit1-tk-luc reporter, at 6.8 µM, stronger effect = higher value, 0% DMSO, 100% Δ7-dafachronic acid
Screen size: about 370,000 compounds; about 5,400 (1.5%) were called active. The full list was thinned out, with actives kept by preference.
Number only, in %; omit the unit.

query: So what does the record say about activation for CC(=O)O[C@@]1(C(C)=O)CCC2[C@H]3C=C(C)C4=CC(=O)CC[C@@]4(C)C3CC[C@]21C (stereo partly specified) ?
result: -1.02

query: Entry Cc1cccc(-c2nc3ccccc3c(=O)n2NC(=O)Cc2ccc(Cl)cc2)c1 has what activation?
result: 6.73

query: Which activation value belongs to Cc1ccc(NC(=O)c2csc3c2CCCC3)cc1 ?
result: 11.3

query: // lookup activation for CCC[C@H]1C(=O)CC[C@@]23CCCN2C(=O)CCC[C@@H]13
result: 0.52

query: # query: activation of entry CC1CC(C)CN(CCCNC(=O)c2csc3c2CCCCC3)C1 (stereo unspecified)
result: 0.75

query: Fill in the blank: the reported activation of COc1cc(OC)cc(-c2nc3ccccc3c(=O)n2NC(=O)c2cccnc2Cl)c1 is ____.
result: -1.71

query: What value of activation has been recorded for this entry: O=C1Nc2ccccc2OC1CC(=O)N1CCCCCCC1 (stereo unspecified)
result: 1.16

query: Given the entry O=C(Nc1ccccc1N1CCN(C(=O)c2ccccc2)CC1)c1ccco1 , report its measured activation.
result: -1.91

query: Query (compound): COc1ccc(-c2c3c(=O)n(C)c(=O)n(C)c3cn2-c2cccc(OC)c2)cc1 ; field requested: activation
result: 7.44

query: Please give the measured activation for this compound: Cc1ccccc1Nc1nnc(SCC(=O)c2cc3ccccc3o2)s1
result: 7.93

query: Consider the compound COc1ccc(OC)c(-n2cc3c(=O)n(C)c(=O)n(C)c3c2)c1 and give its measured activation.
result: -1.87

These data points were gathered from PubChem BioAssay AID652067.
